// data source = patent US20150291598A1

Overview of reported EC50 across a group of compounds:
# System: P. falciparum (NF54 or 3D7 strain)
# test-summary: Assay for P. falciparum proliferation in infected human blood cells (SYBR Green)
# Assay type: cell-based, Plasmodium falciparum
# test-parameters: Plasmodium falciparum, Erythrocyte, 72 h, NF54 or 3D7 infected human erythrocytes, 72 hours; read-out: EC50 (nM), inhibitory efficacy in delaying P. falciparum proliferation in infected human blood cells
State just the number; it will be interpreted in nM.

• CN(C(=O)c1cn2c(-c3ccc(C(N)=O)cc3)cnc2cn1)c1ccc(Cl)cc1 [Compound 486] = 42
• CN(Cc1cn2c(-c3ccc(Cl)cc3)cnc2cn1)c1ccc(C#N)cc1 [Compound 4] = 185
• CN(C(=O)c1cn2c(-c3ccc4c(ccn4C)c3)cnc2cn1)c1ccc(F)cc1 [Compound 136] = 320
• CN(C(=O)c1cn2c(-c3ccc(C(N)=O)cc3)cnc2cn1)c1ccc(S(C)(=O)=O)cc1 [Compound 172] = 1130
• CN(C(=O)c1cn2c(-c3ccc(C#N)cc3)cnc2cn1)c1ccc(C#N)cc1 [Compound 377] = 8190

query: Value lookup for EC50; key = CN(C(=O)c1cn2c(-c3ccc4ncccc4c3)cnc2cn1)c1ccc(C#N)cc1 [Compound 157]
result: 2010
